FYI, the data here is from ChEMBL document CHEMBL1201862.

tested on: MDA-MB-231; assay: NCI tumour cell line growth inhibition, 48 h
The source made the active and inactive calls. Rule as the data show it: active = GI50 up to about 1.1 µM and inactive = higher.
measurement_label: GI50

Task: # get_value(readout='GI50', item= C#CCNCC(=O)O )
Result: > 100 µM (inactive)

Task: What do you get for Cn1cnc(N)c(N=O)c1=O ?
Result: > 10 µM (inactive)

Task: What do you get for CCOC1OC(CO)C(O)CC1n1ccc(=O)[nH]c1=O (configuration not stated) ?
Result: > 100 µM (inactive)

Task: What do you get for CCCCCCCCCCCCCCCCNc1nc(=O)n(C2CC(O)C(COP(=O)(O)OC3CC(n4cc(F)c(=O)[nH]c4=O)OC3CO)O2)cc1F (configuration not stated) ?
Result: 28.4 µM (inactive)

Task: What do you get for Cc1ccc(C(=O)Cc2nc3c([nH]c2=O)c(C)nn3-c2ccccc2)c(C)c1 ?
Result: > 10 µM (inactive)

Task: What do you get for S=C(NCCc1ccccn1)c1nc[nH]c1C(=S)NCCc1ccccn1 ?
Result: > 100 µM (inactive)

Task: What do you get for C/C(=N\Nc1nc2ccccc2o1)c1cccc[n+]1[O-] ?
Result: 60.3 µM (inactive)

Task: What do you get for O=C(c1ccc2ccccc2c1)C1(I)S(=O)(=O)OCCOS1(=O)=O ?
Result: > 100 µM (inactive)

Task: What do you get for CN(C)CCn1c(CO)nc2c1c(=O)n(C)c(=O)n2C ?
Result: > 100 µM (inactive)

Task: What do you get for CC(C)C1=C(O)C(=O)C2=C(C1=O)C(O)CC1C(C)(C)CCCC21C (configuration not stated) ?
Result: 2.84 µM (inactive)

Task: What do you get for O=C(O)c1ccc(C(=O)O)c2c(C(=O)O)ccc(C(=O)O)c12 ?
Result: > 100 µM (inactive)

Task: What do you get for Cc1ccc(C2=Nc3cc(C)c(Cl)cc3S(=O)(=O)NN2)cc1 ?
Result: 23.3 µM (inactive)

Task: What do you get for COc1ccc(C(=C2C(=O)N(c3ccccc3)C(=O)C2=C(C)C)c2ccc(OC)cc2)cc1 ?
Result: 5.09 µM (inactive)

Task: What do you get for CC(=O)NC1=C(C)C(=O)c2c(nc3n2CCC3OC(=O)c2ccccc2)C1=N (configuration not stated) ?
Result: 2.07 µM (inactive)

Task: What do you get for O=C1CSC2=NC3=C(CSC/C3=C\c3ccc(Cl)cc3)C(c3ccc(Cl)cc3)N12 (configuration not stated) ?
Result: 21.8 µM (inactive)

Task: What do you get for O=C(O)c1cccc(/[As]=[As]\c2cccc(C(=O)O)c2)c1 (configuration not stated) ?
Result: 21.6 µM (inactive)

Task: What do you get for COc1cc([C@@H]2c3cc4c(cc3[C@H](OC3OC5COC(C(C)C)OC5C(O)C3O)C3COC(=O)[C@@H]32)OCO4)cc(OC)c1O (some centres not stated) ?
Result: 14.1 µM (inactive)

Task: What do you get for CC(C)C(C=O)C(O)(C(F)(F)F)C(F)(F)F (configuration not stated) ?
Result: > 100 µM (inactive)

Task: What do you get for O=[N+]([O-])c1cc(-c2nnc(C34CC5CC(CC(C5)C3)C4)o2)cc([N+](=O)[O-])c1 ?
Result: 39.2 µM (inactive)

Task: What do you get for C=C(C)CNCC(=C)C.Oc1c(Cl)c(Cl)c(Cl)c(Cl)c1Cl ?
Result: 15.5 µM (inactive)

Task: What do you get for CN(C)c1n/c(=N/Cc2cccnc2)ss1 ?
Result: > 10 µM (inactive)

Task: What do you get for Cc1cc(=O)n2nc(CCl)sc2n1 ?
Result: 20.7 µM (inactive)

Task: What do you get for COc1cccc(N2C(=O)CSC2c2cccc(Oc3ccccc3)c2)c1 (configuration not stated) ?
Result: 7.78 µM (inactive)

Task: What do you get for C/C=C(/COC(C)=O)C(=O)OC1C=C(C=O)C(C)(C)C=C1C (configuration not stated) ?
Result: > 100 µM (inactive)

Task: What do you get for Cc1ccc(S(=O)(=O)N(CCN2C(=O)c3ccccc3C2=O)c2cc3c4c(c2)Oc2cc(N(CCN5C(=O)c6ccccc6C5=O)S(=O)(=O)c5ccc(C)cc5)cc5c2C4(C)c2c(cc(N(CCN4C(=O)c6ccccc6C4=O)S(=O)(=O)c4ccc(C)cc4)cc2O5)O3)cc1 ?
Result: 4.89 µM (inactive)

Task: What do you get for FC(F)(F)C1(C(F)(F)F)O[Si]2(OC(C(F)(F)F)(C(F)(F)F)c3ccccc32)c2ccccc21 ?
Result: 8.24 µM (inactive)

Task: What do you get for O=C1c2c(ccc3c2CCC3)CC1Cc1ccc2c(c1)CCC2 (configuration not stated) ?
Result: 10.3 µM (inactive)
